Test: Pharmacokinetics after oral administration, plasma by LC/MS/MS, monkey
Type: in vivo
Conditions: plasma, oral, 3 mg/kg (as salt), 0.5% methylcellulose in water
QUANTITY: AUC(0-t)

Entry CN[C@H](CNC(=O)N1CCC[C@@H]([C@@H](OCCNC(=O)OC)c2cccc(Cl)c2)C1)C[C@H]1CCCOC1 [Mucate] — recorded AUC(0-t) = 807 ng·h/mL

----------
Assay: Pharmacokinetics after oral administration, plasma by LC/MS/MS, dog
Format: in vivo
Details: plasma, oral, 1 mg/kg (as salt), 2% DMSO in water
QUANTITY: AUC(0-t) (ng·h/mL)
Enter your answer as a number in ng·h/mL; do not include the unit.

Form: compound = CN[C@H](CNC(=O)N1CCC[C@@H]([C@@H](OCCNC(=O)OC)c2cccc(Cl)c2)C1)C[C@H]1CCCOC1.O=C(O)/C=C/C(=O)O [Fumarate] ; AUC(0-t) = 458
